method-summary: In vivo biodistribution of radiolabeled complexes in normal athymic mice
test-conditions: non-tumor bearing mice, 8.00 hr; ± SD
Each entry below carries its reported percent injected dose per gram, Kidney.
Please report the result as a number followed by the unit.

What percent injected dose per gram, Kidney value was documented for this compound, O=C([O-])CNC(Cc1ccc([N+](=O)[O-])cc1)CN1CCN(CC(=O)[O-])CCN(CC(=O)[O-])CC1.[Bi+3] (stereo not shown) [^205/6Bi-C-NE3TA] ?
1.99 ± 0.32 % ID/g

What percent injected dose per gram, Kidney value was documented for this compound, O=C(O)CNC(Cc1ccc([N+](=O)[O-])cc1)CN1CCN(CC(=O)O)CCN(CC(=O)O)CC1.[153Gd] (stereo not shown) [^153Gd-C-NE3TA] ?
0.38 ± 0.06 % ID/g

What percent injected dose per gram, Kidney value was documented for this compound, O=C(O)CNC(Cc1ccc([N+](=O)[O-])cc1)CN1CCN(CC(=O)O)CCN(CC(=O)O)CC1.[90Y] (stereo not shown) [^90Y-C-NE3TA] ?
0.49 ± 0.10 % ID/g

What percent injected dose per gram, Kidney value was documented for this compound, O=C(O)CNC(Cc1ccc([N+](=O)[O-])cc1)CN1CCN(CC(=O)O)CCN(CC(=O)O)CC1.[177Lu] (stereo not shown) [^177Lu-C-NE3TA] ?
1.16 ± 0.19 % ID/g

---

method-summary: In vivo biodistribution of radiolabeled complexes in normal athymic mice
test-conditions: non-tumor bearing mice, 8.00 hr; ± SD
observation-type: percent injected dose per gram, Lung (% ID/g)
Only the number, expressed in % ID/g, is required.

Observe how each entry below is paired with its result.
{"compound": "O=C([O-])CNC(Cc1ccc([N+](=O)[O-])cc1)CN1CCN(CC(=O)[O-])CCN(CC(=O)[O-])CC1.[Bi+3] (stereo not shown)", "observation-type": "percent injected dose per gram, Lung", "quantitative-readout": 0.13}
{"compound": "O=C(O)CNC(Cc1ccc([N+](=O)[O-])cc1)CN1CCN(CC(=O)O)CCN(CC(=O)O)CC1.[90Y] (stereo not shown) [^90Y-C-NE3TA]", "observation-type": "percent injected dose per gram, Lung", "quantitative-readout": 0.16}
{"compound": "O=C(O)CNC(Cc1ccc([N+](=O)[O-])cc1)CN1CCN(CC(=O)O)CCN(CC(=O)O)CC1.[177Lu] (stereo not shown) [^177Lu-C-NE3TA]", "observation-type": "percent injected dose per gram, Lung", "quantitative-readout": 0.15}

What percent injected dose per gram, Lung value was documented for this compound, O=C(O)CNC(Cc1ccc([N+](=O)[O-])cc1)CN1CCN(CC(=O)O)CCN(CC(=O)O)CC1.[153Gd] (stereo not shown) [^153Gd-C-NE3TA] ?
0.02

---

Each entry below carries its reported percent injected dose per gram, Femur.
method-summary: In vivo biodistribution of radiolabeled complexes in normal athymic mice
test-conditions: non-tumor bearing mice, 1.00 hr; ± SD
Only the number, expressed in % ID/g, is required.

Observe how each entry below is paired with its result.
{"molecule": "O=C(O)CNC(Cc1ccc([N+](=O)[O-])cc1)CN1CCN(CC(=O)O)CCN(CC(=O)O)CC1.[177Lu] (stereo not shown) [^177Lu-C-NE3TA]", "percent injected dose per gram, Femur [% ID/g]": 0.39}
{"molecule": "O=C(O)CNC(Cc1ccc([N+](=O)[O-])cc1)CN1CCN(CC(=O)O)CCN(CC(=O)O)CC1.[90Y] (stereo not shown) [^90Y-C-NE3TA]", "percent injected dose per gram, Femur [% ID/g]": 0.82}
{"molecule": "O=C(O)CNC(Cc1ccc([N+](=O)[O-])cc1)CN1CCN(CC(=O)O)CCN(CC(=O)O)CC1.[153Gd] (stereo not shown) [^153Gd-C-NE3TA]", "percent injected dose per gram, Femur [% ID/g]": 1.30}

Query molecule follows.
What percent injected dose per gram, Femur value was documented for this molecule, O=C([O-])CNC(Cc1ccc([N+](=O)[O-])cc1)CN1CCN(CC(=O)[O-])CCN(CC(=O)[O-])CC1.[Bi+3] (stereo not shown) [^205/6Bi-C-NE3TA] ?
0.26

---

method-summary: In vivo biodistribution of radiolabeled complexes in normal athymic mice
test-conditions: non-tumor bearing mice, 24.00 hr; ± SD
observation-type: percent injected dose per gram, Blood (% ID/g)
Only the number, expressed in % ID/g, is required.

{"molecule": "O=C(O)CNC(Cc1ccc([N+](=O)[O-])cc1)CN1CCN(CC(=O)O)CCN(CC(=O)O)CC1.[90Y] (stereo not shown) [^90Y-C-NE3TA]", "observation-type": "percent injected dose per gram, Blood", "unit": "% ID/g", "quantitative-readout": 0.00}

What percent injected dose per gram, Blood value was documented for this molecule, O=C(O)CNC(Cc1ccc([N+](=O)[O-])cc1)CN1CCN(CC(=O)O)CCN(CC(=O)O)CC1.[153Gd] (stereo not shown) [^153Gd-C-NE3TA] ?
0.00

What percent injected dose per gram, Blood value was documented for this molecule, O=C(O)CNC(Cc1ccc([N+](=O)[O-])cc1)CN1CCN(CC(=O)O)CCN(CC(=O)O)CC1.[177Lu] (stereo not shown) [^177Lu-C-NE3TA] ?
0.01

What percent injected dose per gram, Blood value was documented for this molecule, O=C([O-])CNC(Cc1ccc([N+](=O)[O-])cc1)CN1CCN(CC(=O)[O-])CCN(CC(=O)[O-])CC1.[Bi+3] (stereo not shown) ?
0.01

---

method-summary: In vivo biodistribution of radiolabeled complexes in normal athymic mice
test-conditions: non-tumor bearing mice, 0.50 hr; ± SD
observation-type: percent injected dose per gram, Spleen (% ID/g)
Only the number, expressed in % ID/g, is required.

Observe how each entry below is paired with its result.
{"compound": "O=C([O-])CNC(Cc1ccc([N+](=O)[O-])cc1)CN1CCN(CC(=O)[O-])CCN(CC(=O)[O-])CC1.[Bi+3] (stereo not shown) [^205/6Bi-C-NE3TA]", "observation-type": "percent injected dose per gram, Spleen", "quantitative-readout": 0.45}
{"compound": "O=C(O)CNC(Cc1ccc([N+](=O)[O-])cc1)CN1CCN(CC(=O)O)CCN(CC(=O)O)CC1.[177Lu] (stereo not shown) [^177Lu-C-NE3TA]", "observation-type": "percent injected dose per gram, Spleen", "quantitative-readout": 0.33}
{"compound": "O=C(O)CNC(Cc1ccc([N+](=O)[O-])cc1)CN1CCN(CC(=O)O)CCN(CC(=O)O)CC1.[153Gd] (stereo not shown) [^153Gd-C-NE3TA]", "observation-type": "percent injected dose per gram, Spleen", "quantitative-readout": 0.50}

Query compound follows.
What percent injected dose per gram, Spleen value was documented for this compound, O=C(O)CNC(Cc1ccc([N+](=O)[O-])cc1)CN1CCN(CC(=O)O)CCN(CC(=O)O)CC1.[90Y] (stereo not shown) [^90Y-C-NE3TA] ?
0.70

---

Each entry below carries its reported percent injected dose per gram, Kidney.
method-summary: In vivo biodistribution of radiolabeled complexes in normal athymic mice
test-conditions: non-tumor bearing mice, 0.50 hr; ± SD
Only the number, expressed in % ID/g, is required.

Observe how each entry below is paired with its result.
{"compound": "O=C(O)CNC(Cc1ccc([N+](=O)[O-])cc1)CN1CCN(CC(=O)O)CCN(CC(=O)O)CC1.[177Lu] (stereo not shown) [^177Lu-C-NE3TA]", "percent injected dose per gram, Kidney, % ID/g": 2.78}
{"compound": "O=C([O-])CNC(Cc1ccc([N+](=O)[O-])cc1)CN1CCN(CC(=O)[O-])CCN(CC(=O)[O-])CC1.[Bi+3] (stereo not shown) [^205/6Bi-C-NE3TA]", "percent injected dose per gram, Kidney, % ID/g": 5.05}

What percent injected dose per gram, Kidney value was documented for this compound, O=C(O)CNC(Cc1ccc([N+](=O)[O-])cc1)CN1CCN(CC(=O)O)CCN(CC(=O)O)CC1.[90Y] (stereo not shown) [^90Y-C-NE3TA] ?
2.58

What percent injected dose per gram, Kidney value was documented for this compound, O=C(O)CNC(Cc1ccc([N+](=O)[O-])cc1)CN1CCN(CC(=O)O)CCN(CC(=O)O)CC1.[153Gd] (stereo not shown) [^153Gd-C-NE3TA] ?
4.28

---

Each entry below carries its reported percent injected dose per gram, Femur.
method-summary: In vivo biodistribution of radiolabeled complexes in normal athymic mice
test-conditions: non-tumor bearing mice, 24.00 hr; ± SD
Only the number, expressed in % ID/g, is required.

Observe how each entry below is paired with its result.
{"compound": "O=C(O)CNC(Cc1ccc([N+](=O)[O-])cc1)CN1CCN(CC(=O)O)CCN(CC(=O)O)CC1.[153Gd] (stereo not shown) [^153Gd-C-NE3TA]", "percent injected dose per gram, Femur, % ID/g": 0.01}
{"compound": "O=C([O-])CNC(Cc1ccc([N+](=O)[O-])cc1)CN1CCN(CC(=O)[O-])CCN(CC(=O)[O-])CC1.[Bi+3] (stereo not shown)", "percent injected dose per gram, Femur, % ID/g": 0.13}
{"compound": "O=C(O)CNC(Cc1ccc([N+](=O)[O-])cc1)CN1CCN(CC(=O)O)CCN(CC(=O)O)CC1.[90Y] (stereo not shown) [^90Y-C-NE3TA]", "percent injected dose per gram, Femur, % ID/g": 0.08}

What percent injected dose per gram, Femur value was documented for this compound, O=C(O)CNC(Cc1ccc([N+](=O)[O-])cc1)CN1CCN(CC(=O)O)CCN(CC(=O)O)CC1.[177Lu] (stereo not shown) [^177Lu-C-NE3TA] ?
0.38
